system: MS2 coat protein; experiment: apparent KD of MS2 coat protein; higher = weaker reporter binding; settings: Eterna round: R107; input ligand: none
Outcome: MET for apparent KD of MS2 coat protein of at least 40 nM; NOT MET for anything lower.

>>> class("AAAACUCAUGGCUUAUAUCCGUGUCUCGAAGGAGCGUACAGCGGUACAGGUAGGUCGCGAGACAUGAGGAUCACCCAUGUGUAAA [XArg-A 20 V1&2 original #dotplot2>1]")
"NOT MET"

Enquiry: Would you say UAACGGCACUGAAGGAGCGAGUUGACAAACAUGAGGAUCACCCAUGUUAUGGGUUGUUAAUCUCAGGUAGGUCGCAGUUGUCGUA [Same State Arginine B GF 20] shows apparent KD of MS2 coat protein at minimum 40 nM?
Return: MET

Enquiry: Quick check, apparent KD of MS2 coat protein >= 40 nM? GUAUGAGUUGACUGUGAGACUGGCGUGGAAGGAGCGCACGGAGGUGCAGGUAGGUCGCCACAUGAGGAUCACCCAUGUCAGGCCG [Ceedtila]
Return: NOT MET

Enquiry: Please check the record UGAGUUCGCUGAUGGGCUAAGUCAGGUGAUACCAGCCACUCCCGCGGCCCUUGGCAGCACAUGAGGAUCACCCAUGUAGAACUUG [Vexetela] and state if its apparent KD of MS2 coat protein is at or above 40 nM.
Return: NOT MET

Enquiry: # bool: apparent KD of MS2 coat protein of UGGUACAUGAGGAUCACCCAUGUUCCAGAUACCAGUGUCCCGGUGCACCCUUGGCAGCUGGUGGUACAUGAGGAUCACCCAUGUG [Exclusion Theophylline A GF13] >= 40 nM
Return: MET

Enquiry: Given ACAUGAGGAUCACCCAUGUAACAACGGGAAGGAGCGCCAAACAAGGCAGGUAGGUCGCCCACAUGAGGAUCACCCAUGUGUUGGG [Exclusion Arginine A GF 27] , state whether its apparent KD of MS2 coat protein is at least 40 nM.
Return: NOT MET
